System: A549
Experimental Protocol: NCI tumour cell line growth inhibition, 48 h
Calls of active or inactive are those of the source. Rule as the data show it: active = GI50 up to about 1.1 µM and inactive = higher.
// reported GI50 for each item listed

Guide cases for GI50, answers given:
CC1=NN(c2nc(N)nc(/C(C#N)=C\c3cccc([N+](=O)[O-])c3)n2)C(C)(C)C1
12.3 µM (inactive)
Cc1cn(C2OC(C)(CO)C(O)C2O)c(=O)[nH]c1=O (stereo not drawn)
> 100 µM (inactive)
COC(=O)c1cc2ccc(OC(C)=O)c(OC(C)=O)c2cn1
21.2 µM (inactive)

Prompt: For NS(=O)(=O)c1ccc(NC(=O)Cc2nc3ccccc3s2)cc1 , write its GI50.
Response: 20.6 µM (inactive)

Prompt: Consider the molecule CC(C)Cc1ccc(C(C)CC2=CCC(CN(C)C)C2=O)cc1 (stereo not drawn) . State its measured GI50.
Response: 18.3 µM (inactive)

Prompt: Find the measured GI50 of COC(=O)C1=CC[C@@H]2C(C(=O)O)=CO[C@@H](OC3OC(CO)C(O)C(O)C3O)[C@H]12 (stereo partly drawn) and report it.
Response: > 300 µM (inactive)

Prompt: Consider the molecule C=CCC(C(=O)Nc1cccc2nc[nH]c12)C(=O)OCC (stereo not drawn) and give its recorded GI50.
Response: > 100 µM (inactive)

Prompt: Tell me its GI50 given O=C(c1cccnc1)N1N=C(c2ccc(Cl)cc2)CC1(O)c1cc(F)c(Cl)cc1Cl (stereo not drawn) as the entry.
Response: 24.9 µM (inactive)
